# TARGET OF ASSAY: chemokine receptors on THP-1 cells
# PROTOCOL DESCRIPTION: cell-based or functional assay
Ends that are not written are not given here.
Could you please report measured ED50 for inhibition of THP-1 migration versus SDF1α for the items listed next?
Give bare numbers, in µM.

[[record]]
binder = "EICLDPKQKWVQ [Leu4peptide 3(1-12)[MCP-1]]"
unit_annotation = "µM"
reported_result = 3


Give ED50 for inhibition of THP-1 migration versus SDF1α for all binders that follow.
1. EICADP [peptide 3(1-6)[MCP-1]]
2. EICLDPKQKWIQ (also called Leu4Ile11pep3; Leu4Ile11peptide 3[MCP-1]) [Leu4Ile11peptide 3(1-12)[MCP-1]]
3. KQKWVQ (also called Pep3[7-12]; KQKWVQ) [peptide 3(7-12)[MCP-1]]
4. EICADPSQKWVQ (Mutant of peptide 3; also called Ser7pep3) [Ser7peptide 3(1-12)[MCP-1]]
5. CADPKQKWVQ (also called Pep3[3-12]; Pep3(3-12)[MCP-1]) [peptide 3(3-12)[MCP-1]]
6. EICADPSEEWVQ (not fully specified, also called Ser7Glu8Glu9pep3) [Ser7Glu8Glu9peptide 3(1-12)[MCP-1]]

19
3
6
4
9
5

Which ED50 for inhibition of THP-1 migration versus SDF1α reading was recorded for the binder EICADPKQKWIQ [Ile11peptide 3(1-12)[MCP-1]] ?
7
